As a worked illustration, we turn to log10(IC50) data collected for IRAK4 (Homo sapiens (Human), UniProt Q9NWZ3).
Scale: log10; quantity: IC50; unit before log: nM

I am curious: what log10(IC50) value has been reported for CN(C)[C@H]1CC[C@H](Nc2ncnc3ccc(-c4cncc(N5CCOCC5)c4)cc23)CC1 [Example 1-23] ? 2.70

Could you do the same for CN(C)[C@H]1CC[C@H](Nc2ncnc3ccc(-c4cnc5[nH]ncc5c4)cc23)CC1 [Example 1-58] , please? 1.32

Try this compound next: N#Cc1nn[nH]c1-c1ccc2ncnc(N[C@H]3CC[C@H](N4CCOCC4)CC3)c2c1 [Example 2-11] 1.79

Subsequent entry: CN(C)[C@H]1CC[C@H](Nc2ncnc3ccc(-c4cnn(Cc5ccncc5)c4)cc23)CC1 [Example 1-19] 2.55

Item: c1cc(-c2ccc3ncnc(N[C@H]4CC[C@H](N5CCOCC5)CC4)c3c2)ccn1 [Example 1-48] 0.95

Now give it for COC1CN([C@H]2CC[C@H](Nc3ncnc4ccc(-c5cncc(O)c5)cc34)CC2)C1 [Example 5-2] too. 0.00

# repeat for COc1ncc(-c2ccc3ncnc(N[C@H]4CC[C@H](N5CCOCC5)CC4)c3c2)cc1N [Example 1-71] 1.23

Param item: FC(F)(F)c1cncc(-c2ccc3ncnc(N[C@H]4CC[C@H](N5CCOCC5)CC4)c3c2)c1 [Example 2-4] 2.08

Follow-up item: OCc1cncc(-c2ccc3ncnc(N[C@H]4CC[C@H](N5CCOCC5)CC4)c3c2)c1 [Example 1-94] 1.00

Let us now turn to CN(C)[C@H]1CC[C@H](Nc2ncnc3ccc(-c4cnc(O)nc4)cc23)CC1 [Example 1-33] 0.95

// next record COc1ncc(-c2ccc3ncnc(N[C@H]4CC[C@H](N(C)C)CC4)c3c2)cc1F [Example 1-52] 2.30

And Cn1cc(-c2ccc3ncnc(N[C@H]4CC[C@H](N5CCOCC5)CC4)c3c2)cn1 [Example 1-75] ? 1.59

Fc1c[nH]nc1-c1ccc2ncnc(N[C@H]3CC[C@H](N4CCOCC4)CC3)c2c1 [Example 2-9] , same question. 1.08

Try c1nc(N[C@H]2CC[C@H](N3CCOCC3)CC2)c2cc(-c3cnoc3)ccc2n1 [Example 1-96] next. 0.95

Also, CN(C)[C@H]1CC[C@H](Nc2ncnc3ccc(-c4cnn(C5CCCCO5)c4)cc23)CC1 (stereo partly shown) [Example 1-16] please. 2.34

Now this one: N#Cc1sccc1-c1ccc2ncnc(N[C@H]3CC[C@H](N4CCOCC4)CC3)c2c1 [Example 2-17] 1.61
